Test: Cytotoxicity against human SUP-T1 cells assessed as reduction in cell viability measured after 16 hrs by MTT assay
Assay type: cell-based
MEASURE: CC50 at 16 h (µM)
Kindly answer with a numeric value in µM, unit omitted.

According to the records, this compound CCOC(=O)C1=C(C)NC(=O)NC1c1ccccc1C (stereo unspecified) displays CC50 at 16 h of 136

Reported CC50 at 16 h of CCOC(=O)C1=C(C)NC(=S)NC1c1ccc(OC)cc1 (stereo unspecified) : 110

Recorded result, CCOC(=O)C1=C(C)NC(=O)NC1c1ccc(O)cc1 (stereo unspecified) , CC50 at 16 h: 132

The value of CC50 at 16 h measured for the compound CCOC(=O)C1=C(C)NC(=O)NC1c1ccc(OC)cc1 (stereo unspecified) turned out to be 103

Notebook: CCOC(=O)C1=C(C)NC(=S)NC1c1cc(Br)ccc1O (stereo unspecified) , CC50 at 16 h read as 83.4

Entry CCOC(=O)C1=C(C)NC(=S)NC1c1ccccc1C (stereo unspecified) , CC50 at 16 h reported as 124
